- Tested on: Escherichia coli ATCC 25922
- Type: cell-based
- test_parameters: ATCC 25922
Positions of bridges follow the written chain, without caps; N, C: chain ends. Non-standard residues stand in square brackets, D forms with d. Residues, ends and D or L forms follow the SMILES beside them. *: point of attachment. Octanoyl(7-Me) = CC(C)CCCCCC(=O)*; Palmitoyl = CCCCCCCCCCCCCCCC(=O)*; dOrn = NCCC[C@@H](N)C(=O)O; Orn = NCCC[C@H](N)C(=O)O; Dap = NC[C@H](N)C(=O)O; Alloc = C=CCOC(=O)*; Butyryl = CCCC(=O)*
Listing of recorded Minimum inhibitory concentration (MIC) by entry.
Provide only the numeric value, understood in µg/mL.

// worked examples, Minimum inhibitory concentration (MIC) included
| molecule | study_system | endpoint_value |
| --- | --- | --- |
| CCCCCCCCCCCCCCCC(=O)N[C@H](CO)C(=O)N[C@H](Cc1ccc(O)cc1)C(=O)N[C@H](Cc1c[nH]c2ccccc12)C(=O)N[C@H](CCCN)C(=O)N[C@@H](CCCN)C(=O)NCC(=O)N[C@H](CCCN)C(=O)N[C@@H](Cc1c[nH]c2ccccc12)C(=O)N[C@@H]1C(=O)N[C@@H]([C@@H](C)CC)C(=O)N[C@@H](CC(N)=O)C(=O)NCC(=O)NCC(=O)O[C@@H]1C [Compound C16] (Palmitoyl-[dS][dY][dW][dOrn][Orn]G[dOrn]WTINGG; ester 9-C) | Escherichia coli ATCC 25922 | 64 |
| CCCC(=O)N[C@H](CO)C(=O)N[C@H](Cc1ccc(O)cc1)C(=O)N[C@H](Cc1c[nH]c2ccccc12)C(=O)N[C@H](CCCN)C(=O)N[C@@H](CCCN)C(=O)NCC(=O)N[C@H](CCCN)C(=O)N[C@@H](Cc1c[nH]c2ccccc12)C(=O)N[C@@H]1C(=O)N[C@@H]([C@@H](C)CC)C(=O)N[C@@H](CC(N)=O)C(=O)NCC(=O)NCC(=O)O[C@@H]1C [Compound C4] (Butyryl-[dS][dY][dW][dOrn][Orn]G[dOrn]WTINGG; ester 9-C) | Escherichia coli ATCC 25922 | 8 |
| CC[C@H](C)[C@H](NC(=O)[C@H](CCSC)NC(=O)[C@H](Cc1c[nH]c2ccccc12)NC(=O)[C@@H](CCCN)NC(=O)CNC(=O)[C@H](CCCN)NC(=O)[C@@H](CCCN)NC(=O)[C@@H](Cc1c[nH]c2ccccc12)NC(=O)[C@@H](Cc1ccc(O)cc1)NC(=O)[C@@H](CO)NC(=O)CCCCCC(C)C)C(=O)N[C@@H](CC(N)=O)C(=O)NCC(=O)NCC(N)=O [Met9-CONH2] ({Octanoyl(7-Me)}-[dS][dY][dW][dOrn][Orn]G[dOrn]WMINGG-NH2) | Escherichia coli ATCC 25922 | 2 |

Attention now turns to another entry.
stdin: // fetch Minimum inhibitory concentration (MIC) for C=CCOC(=O)NC[C@H](NC(=O)[C@H](Cc1c[nH]c2ccccc12)NC(=O)[C@@H](CCCN)NC(=O)CNC(=O)[C@H](CCCN)NC(=O)[C@@H](CCCN)NC(=O)[C@@H](Cc1c[nH]c2ccccc12)NC(=O)[C@@H](Cc1ccc(O)cc1)NC(=O)[C@@H](CO)NC(=O)CCCCCC(C)C)C(=O)N[C@H](C(=O)N[C@@H](CC(N)=O)C(N)=O)[C@@H](C)CC [ΔG12-G13-Dap(Alloc)9-isoC9] ({Octanoyl(7-Me)}-[dS][dY][dW][dOrn][Orn]G[dOrn]W[Dap](Alloc)IN-NH2) ; system: Escherichia coli ATCC 25922
stdout: 4
